List of GI50 tested on COLO 205.
Numbers only, in µM.

compound	GI50, µM
CC1=C2[C@@H](CC1)[C@]1(C)O[C@@](C(C)C)(C[C@H]1OC(=O)[C@H](C)O)[C@H]2OC(=O)C=Cc1ccccc1	17

For each of the items listed, what is its GI50?
1. CC1=C2[C@@H](CC1)[C@]1(C)O[C@@](C(C)C)(C[C@H]1OC(=O)CO)[C@H]2OC(=O)/C=C/c1ccccc1
2. CC1=C2[C@@H](CC1)[C@]1(C)O[C@@](c3ccccc3)(C[C@H]1OC(=O)CO)[C@H]2OC(=O)C=Cc1ccccc1
3. CC(=O)O[C@@H]1C[C@]2(C(C)C)O[C@@]1(C)[C@@H]1CCC(C)=C1[C@@H]2OC(=O)C=Cc1ccccc1
4. CC1=C2[C@@H](CC1)[C@]1(C)O[C@@](C3CC3)(C[C@H]1OC(=O)CO)[C@H]2OC(=O)C=Cc1ccccc1
5. CC1=C2[C@@H](CC1)[C@]1(C)O[C@@](C(C)C)(C[C@H]1OC(=O)CO)[C@H]2OC(=O)C1CC1c1ccccc1 (stereo partly shown)
6. CC1=C2[C@@H](CC1)[C@]1(C)O[C@@](C3CCCCC3)(C[C@H]1OC(=O)CO)[C@H]2OC(=O)C=Cc1ccccc1

1: 44; 2: 15; 3: 32; 4: 19; 5: 17; 6: 15
